# Test system: peptide-specific CTL precursors in PBMCs
# Assay: Peptide-specific CTL precursors in pre- and post (6th)-vaccination PBMCs by IFN-γ-release assay
# Type: cell-based, human
# Condition: post (6th)-vaccination PBMC; positive cases/No. of tested cases (% positive)
Measured Parameter: Increased immune reactions to peptide: CTL activity

[ask] Record lookup: for peptide-specific CTL precursors in PBMCs, what Increased immune reactions to peptide: CTL activity belongs to ALVEFEDVL [HNRPL140] ?
[reply] 0/5

[ask] Next: LLQAEAPRL [SART3 302]
[reply] 0/4

[ask] Next: AFLRHAAL [ART4 13]
[reply] 0/1

[ask] Next: SYTRLFLIL [SART2 899]
[reply] 0/7

[ask] Next: EYCLKFTKL [ART1 170]
[reply] 0/7

[ask] Next: RLAEYQAYI [SART3 309]
[reply] 0/6

[ask] Next: KFHRVIKDF [CypB84]
[reply] 0/3

[ask] Next: KLKHYGPGWV [CypB129]
[reply] 0/6
